Just for reference, the supplement of paper PMC10567573 is where these values come from.

B1: CD207 (parent)
chain: MTVEKEAPDAHFTVDKQNISLWPR

Variants of: B1
test_method_notes: protein stability index of a GFP-peptide fusion (GPS, HEK-293T) (PSI 1-6); higher = more stable;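 further: lentivirally expressed fusions sorted by FACS into six bins by GFP to DsRed ratio, PSI derived from sequencing read proportions per bin multiplied by bin number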
conditions: c terminus: a fixed tail appended
protein stability index vs 3: at or above is met, below is not met.

MTVEKEAPDAHFTVDKQNKSLWPR	met
MTVEKEAPDAHCTVDKQNISLWPR	met
MTVMKEAPDAHFTVDKQNISLWPR	met

Quick check, protein stability index >= 3? `ATVEKEAPDAHFTVDKQNISLWPR`
met

Quick check, protein stability index >= 3? `MTVEKEAPEAHFTVDKQNISLWPR`
met
